Biological target: purified HLA DRB1*0301 (human)
Experiment: competitive inhibition of 125I-labeled peptide binding to purified HLA
pIC50: −log10 of the molar value.
Reported endpoint: pIC50

Name the reported pIC50 value associated with the binder RREVHIYYLEKANKI (modifications not checked) [Flu.PA.127 peptide …]
< 5.00
